Entries and their measured pIC50 follow.
target: Metabotropic glutamate receptor 5 (Rattus norvegicus); test: Antagonist activity at rat mGluR5 expressed in 1321N1 cells
Sequence (P31424 whole entry): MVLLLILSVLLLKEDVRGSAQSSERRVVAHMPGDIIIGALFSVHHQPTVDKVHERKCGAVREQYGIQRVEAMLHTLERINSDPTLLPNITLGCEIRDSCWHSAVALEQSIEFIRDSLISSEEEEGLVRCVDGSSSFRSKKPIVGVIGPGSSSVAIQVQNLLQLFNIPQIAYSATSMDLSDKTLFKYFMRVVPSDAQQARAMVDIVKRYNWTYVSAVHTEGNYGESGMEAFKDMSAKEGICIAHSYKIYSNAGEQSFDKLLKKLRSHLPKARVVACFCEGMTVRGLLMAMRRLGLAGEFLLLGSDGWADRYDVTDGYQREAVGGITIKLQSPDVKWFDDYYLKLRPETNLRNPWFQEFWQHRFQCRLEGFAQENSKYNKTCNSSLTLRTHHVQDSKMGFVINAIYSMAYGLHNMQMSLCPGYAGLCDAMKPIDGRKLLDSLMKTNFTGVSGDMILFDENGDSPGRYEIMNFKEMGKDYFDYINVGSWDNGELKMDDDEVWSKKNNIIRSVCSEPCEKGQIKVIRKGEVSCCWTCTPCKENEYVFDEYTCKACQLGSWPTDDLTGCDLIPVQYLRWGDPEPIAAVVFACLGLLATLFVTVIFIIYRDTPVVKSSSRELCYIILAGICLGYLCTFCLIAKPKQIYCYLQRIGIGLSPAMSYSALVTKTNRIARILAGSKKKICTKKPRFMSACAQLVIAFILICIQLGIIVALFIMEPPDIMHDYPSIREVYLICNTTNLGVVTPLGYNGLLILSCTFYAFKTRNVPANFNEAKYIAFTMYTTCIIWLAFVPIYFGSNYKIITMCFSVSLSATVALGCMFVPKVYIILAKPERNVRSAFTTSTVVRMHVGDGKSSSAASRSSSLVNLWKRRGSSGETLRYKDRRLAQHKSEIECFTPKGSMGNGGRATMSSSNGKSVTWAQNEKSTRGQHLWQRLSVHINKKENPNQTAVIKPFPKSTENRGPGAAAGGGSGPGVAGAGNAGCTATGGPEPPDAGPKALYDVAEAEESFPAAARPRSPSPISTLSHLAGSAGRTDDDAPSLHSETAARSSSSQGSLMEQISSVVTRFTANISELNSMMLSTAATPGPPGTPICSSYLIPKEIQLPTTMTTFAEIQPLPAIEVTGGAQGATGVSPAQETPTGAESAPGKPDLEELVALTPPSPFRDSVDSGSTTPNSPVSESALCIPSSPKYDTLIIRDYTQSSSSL
pIC50: −log10 of the molar value.

# Smiles input, Target or test system, pIC50
rows = [
    ("CN(C)c1ccnc2sc3c(=O)n(N4CCCCCC4)cnc3c12", "Metabotropic glutamate receptor 5 (Rattus norvegicus)", "< 5.00"),
    ("C[N+](C)([O-])c1ccnc2sc3c(=O)n(N4CCCCCC4)cnc3c12", "Metabotropic glutamate receptor 5 (Rattus norvegicus)", "< 5.00"),
    ("CCc1ccc(-n2cnc3c(sc4nccc(N(C)CCc5ccccn5)c43)c2=O)cc1", "Metabotropic glutamate receptor 5 (Rattus norvegicus)", "< 5.00"),
]

(Q) Query: pIC50; subject: Cc1ccc(-n2cnc3c(sc4cncc(N(C)C)c43)c2=O)cc1F
(A) < 5.00

(Q) Query: pIC50; subject: CCc1ccc(-n2cnc3c(sc4nccc(N(C)C)c43)c2=O)cc1
(A) 5.88

====

target: Metabotropic glutamate receptor 4 (Homo sapiens, UniProt Q14833); test: Antagonist activity at human mGluR4 expressed in 1321N1 cells
Sequence (Q14833 whole entry): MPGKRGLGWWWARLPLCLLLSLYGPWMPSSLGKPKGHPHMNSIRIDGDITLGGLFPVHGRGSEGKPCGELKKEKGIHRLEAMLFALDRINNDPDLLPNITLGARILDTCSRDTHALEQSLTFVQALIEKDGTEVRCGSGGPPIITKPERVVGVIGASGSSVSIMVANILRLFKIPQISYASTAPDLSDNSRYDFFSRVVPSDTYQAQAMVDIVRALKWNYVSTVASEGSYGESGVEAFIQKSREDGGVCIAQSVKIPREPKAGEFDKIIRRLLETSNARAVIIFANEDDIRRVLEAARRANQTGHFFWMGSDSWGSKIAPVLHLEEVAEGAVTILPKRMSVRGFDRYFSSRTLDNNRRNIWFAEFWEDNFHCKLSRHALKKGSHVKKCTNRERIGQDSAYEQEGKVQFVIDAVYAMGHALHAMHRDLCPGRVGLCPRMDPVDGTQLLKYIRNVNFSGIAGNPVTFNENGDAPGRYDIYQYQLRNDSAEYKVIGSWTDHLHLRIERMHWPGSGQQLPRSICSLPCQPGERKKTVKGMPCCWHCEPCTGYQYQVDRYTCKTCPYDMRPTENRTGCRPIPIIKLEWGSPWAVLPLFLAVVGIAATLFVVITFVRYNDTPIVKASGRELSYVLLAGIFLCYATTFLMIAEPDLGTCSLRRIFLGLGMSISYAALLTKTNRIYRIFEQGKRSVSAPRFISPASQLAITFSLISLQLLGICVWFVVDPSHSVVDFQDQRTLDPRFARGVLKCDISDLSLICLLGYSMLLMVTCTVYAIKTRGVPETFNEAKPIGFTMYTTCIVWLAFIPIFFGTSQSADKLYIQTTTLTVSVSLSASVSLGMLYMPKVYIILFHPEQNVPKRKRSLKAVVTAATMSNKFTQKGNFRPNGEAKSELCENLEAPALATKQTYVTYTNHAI
Quantity name: IC50

(Q) Query: IC50; subject: CCc1ccc(-n2cnc3c(sc4nccc(N(C)C)c43)c2=O)cc1
(A) > 10 µM

====

Entries and their measured log10 of IC50 follow.
biological target: Metabotropic glutamate receptor 1 (Rattus norvegicus, UniProt P23385); assay: Antagonist activity at rat mGluR1 expressed in 1321N1 cells; assay type: functional, cell-based
Sequence (P23385 whole entry): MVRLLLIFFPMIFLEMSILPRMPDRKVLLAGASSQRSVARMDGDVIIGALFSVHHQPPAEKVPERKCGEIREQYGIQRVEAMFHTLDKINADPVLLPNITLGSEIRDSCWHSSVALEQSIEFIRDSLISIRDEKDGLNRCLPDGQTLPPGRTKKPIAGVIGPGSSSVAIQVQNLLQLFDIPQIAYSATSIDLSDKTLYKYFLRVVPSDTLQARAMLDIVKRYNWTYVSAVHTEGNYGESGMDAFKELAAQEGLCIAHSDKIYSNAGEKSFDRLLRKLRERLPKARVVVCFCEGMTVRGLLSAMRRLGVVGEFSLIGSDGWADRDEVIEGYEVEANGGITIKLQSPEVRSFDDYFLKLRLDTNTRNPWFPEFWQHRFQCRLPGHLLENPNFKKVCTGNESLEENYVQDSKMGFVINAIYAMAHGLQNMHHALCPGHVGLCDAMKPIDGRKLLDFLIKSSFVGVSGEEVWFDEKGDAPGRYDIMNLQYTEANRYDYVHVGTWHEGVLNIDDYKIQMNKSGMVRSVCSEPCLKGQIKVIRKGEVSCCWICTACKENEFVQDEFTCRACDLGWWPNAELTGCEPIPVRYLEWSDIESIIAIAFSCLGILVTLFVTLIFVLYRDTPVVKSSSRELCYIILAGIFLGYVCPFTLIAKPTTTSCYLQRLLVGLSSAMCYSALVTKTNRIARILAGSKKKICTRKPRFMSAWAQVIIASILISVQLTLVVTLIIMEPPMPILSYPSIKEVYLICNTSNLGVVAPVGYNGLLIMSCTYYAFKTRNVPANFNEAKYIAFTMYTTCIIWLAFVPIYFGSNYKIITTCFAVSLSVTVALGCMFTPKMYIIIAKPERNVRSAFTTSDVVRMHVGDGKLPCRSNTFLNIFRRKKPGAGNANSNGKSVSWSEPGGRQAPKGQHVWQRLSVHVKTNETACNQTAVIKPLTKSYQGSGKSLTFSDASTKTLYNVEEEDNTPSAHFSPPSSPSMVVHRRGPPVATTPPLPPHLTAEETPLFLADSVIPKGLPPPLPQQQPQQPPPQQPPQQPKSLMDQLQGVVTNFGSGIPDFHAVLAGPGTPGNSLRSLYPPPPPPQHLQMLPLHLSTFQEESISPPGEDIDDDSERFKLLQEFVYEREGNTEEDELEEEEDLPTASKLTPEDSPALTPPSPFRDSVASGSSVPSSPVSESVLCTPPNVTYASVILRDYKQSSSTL
Short version: log10 scale, IC50, nM.

# Smiles input, log10 of IC50
data = [
    ("CCc1ccc(-n2cnc3c(sc4nccc(N(C)C)c43)c2=O)cc1", 0.70),
    ("Cc1ccc(-n2cnc3c(sc4cncc(N(C)C)c43)c2=O)cc1F", 1.32),
    ("CN(C)c1ccnc2sc3c(=O)n(N4CCCCCC4)cnc3c12", 0.00),
    ("C[N+](C)([O-])c1ccnc2sc3c(=O)n(N4CCCCCC4)cnc3c12", 1.52),
]

(Q) Query: log10 of IC50; subject: CCc1ccc(-n2cnc3c(sc4nccc(N(C)CCc5ccccn5)c43)c2=O)cc1
(A) 1.72
